target: Myo3, P36006; test: SPOT array; settings: median of control spots 468
Would you mind telling me the reported SPOT intensity of each entry?
Form rule: numeric answer, no unit written next to it.

SPOT intensity reading for QLLNPNRRAPRRPLS : 168

SPOT intensity reading for ATNVPVAPPPPPASL : 0

SPOT intensity reading for HKVLRPFLLRRLKKD : 0

SPOT intensity reading for AERNYAPRLPRRETS : 0

SPOT intensity reading for GTIARPLFLVVLFFI : 1

SPOT intensity reading for IAPIPMPKPNPTHIS : 22

SPOT intensity reading for NHSRSLFSLPGNQQS : 13
